Tested on: Streptococcus pneumoniae 1175
Assay type: cell-based
Details: Streptococcus pneumoniae 1175; microtiter broth dilution
From the text: The assay described herein includes a panel of bacterial strains assembled to include a variety of target pathogenic species, including representatives of macrolide resistance mechanisms that have been characterized. In many cases, both the macrolide-susceptible parent strain and the macrolide-resistant strain derived from it are available to provide a more accurate assessment of the compound's ability to circumvent the resistance mechanism. […]
endpoint_label: MIC S. pneumo. 1175 (µg/mL)

compound="CCC1OC(=O)C(C)C(=O)C(C)C(OC2OC(C)CC(N(C)C)C2O)C(C)(OC)CC(C)C(=O)C(C)C2N(CC3CN(Cc4cccc5nc[nH]c45)C3)C(=O)OC12C (centres unmarked) [4.20]" units_text=µg/mL bound_sign== measured=0.25
compound="CCC1OC(=O)C(C)C(=O)C(C)C(OC2OC(C)CC(N(C)C)C2O)C(C)(OC)CC(C)C(=O)C(C)C2N(C3CN(Cc4cccc5ncoc45)C3)C(=O)OC12C (centres unmarked) [Example 1.13, (benzooxazol-7-yl)methyl]" units_text=µg/mL bound_sign== measured=1
compound="CCC1OC(=O)C(C)C(=O)C(C)C(OC2OC(C)CC(N(C)C)C2O)C(C)(OC)CC(C)C(=O)C(C)C2N(C3CN(S(=O)(=O)c4ccc(C#N)nc4)C3)C(=O)OC12C (centres unmarked) [Example 3.48, 6-cyanopyridine-3-sulfonyl]" units_text=µg/mL bound_sign=< measured=0.06
compound="CCC1OC(=O)C(C)C(=O)C(C)C(OC2OC(C)CC(N(C)C)C2O)C(C)(OC)CC(C)C(=O)C(C)C2N(C3CN(S(=O)(=O)c4cccnc4)C3)C(=O)OC12C (centres unmarked) [Example 3.01]" units_text=µg/mL bound_sign=< measured=0.06
compound="CCC1OC(=O)C(C)C(=O)C(C)C(OC2OC(C)CC(N(C)C)C2O)C(C)(OC)CC(C)C(=O)C(C)C2N(C3CN(Cc4cccnc4)C3)C(=O)OC12C (centres unmarked) [Example 1.03, (pyridin-3-yl)methyl]" units_text=µg/mL bound_sign== measured=2

###

test system: Streptococcus pneumoniae 1175; assay type: cell-based; conditions: S. pneumoniae 1175 (mefA); microtiter broth dilution
Form field: MIC S. pneumo. 1175 (one value per entry).
endpoint_label: MIC S. pneumo. 1175 (µg/mL)

compound="CC[C@H]1OC(=O)[C@H](C)C(=O)[C@H](C)[C@@H](O[C@@H]2O[C@H](C)C[C@H](N(C)C)[C@H]2O)[C@](C)(OC)C[C@@H](C)C(=O)[C@H](C)[C@H]2N(CC3(O)CN(Cc4nc(C)[nH]c4C)C3)C(=O)O[C@]12C [7.07]" bound_sign== measured=4
compound="CCC1OC(=O)C(C)C(=O)C(C)C(OC2OC(C)CC(N(C)C)C2O)C(C)(OC)CC(C)C(=O)C(C)C2N(CC3(O)CCN(Cc4c[nH]c5ncccc45)CC3)C(=O)OC12C (stereo not drawn) [Example 14.01, (1H-pyrrolo[2,3-b]pyridin-3-yl)methyl]" bound_sign== measured=1
compound="CCC1OC(=O)C(C)C(=O)C(C)C(OC2OC(C)CC(N(C)C)C2O)C(C)(OC)CC(C)C(=O)C(C)C2N(CC3CCCN3C(=O)c3cc4ncccc4[nH]3)C(=O)OC12C (stereo not drawn) [10.42]" bound_sign=< measured=0.06
compound="CC[C@H]1OC(=O)[C@H](C)C(=O)[C@H](C)[C@@H](O[C@@H]2O[C@H](C)C[C@H](N(C)C)[C@H]2O)[C@](C)(OC)C[C@@H](C)C(=O)[C@H](C)[C@H]2N(CC3(O)CN(Cc4ccc5nccnc5c4)C3)C(=O)O[C@]12C [7.03]" bound_sign== measured=0.12
compound="CC[C@H]1OC(=O)[C@H](C)C(=O)[C@H](C)[C@@H](O[C@@H]2O[C@H](C)C[C@H](N(C)C)[C@H]2O)[C@](C)(OC)C[C@@H](C)C(=O)[C@H](C)[C@H]2N(CC3(O)CN(C(=O)c4cn5ccccc5n4)C3)C(=O)O[C@]12C.O=CO [7.29]" bound_sign== measured=8
compound="CCC1OC(=O)C(C)C(=O)C(C)C(OC2OC(C)CC(N(C)C)C2O)C(C)(OC)CC(C)C(=O)C(C)C2N(CC3CCN(C(=O)c4cc5cccnc5[nH]4)C3)C(=O)OC12C (stereo not drawn) [13.15]" bound_sign== measured=0.12
compound="CCC1OC(=O)C(C)C(=O)C(C)C(OC2OC(C)CC(N(C)C)C2O)C(C)(OC)CC(C)C(=O)C(C)C2N(CC3CCCN3C(=O)c3cc4ccccc4cn3)C(=O)OC12C.O=CO (stereo not drawn) [10.09]" bound_sign== measured=1
compound="CCC1OC(=O)C(C)C(=O)C(C)C(OC2OC(C)CC(N(C)C)C2O)C(C)(OC)CC(C)C(=O)C(C)C2N(CC3CCN(Cc4ccc5ccccc5n4)C3)C(=O)OC12C (stereo not drawn) [11.04]" bound_sign== measured=0.12
compound="CCC1OC(=O)C(C)C(=O)C(C)C(OC2OC(C)CC(N(C)C)C2O)C(C)(OC)CC(C)C(=O)C(C)C2N(CC3CCN(Cc4ccc(OC)nc4)CC3)C(=O)OC12C (stereo not drawn) [15.04]" bound_sign== measured=0.5

###

# key: entry, value: MIC S. pneumo. 1175
system: Streptococcus pneumoniae 1175; format: cell-based; conditions: Streptococcus pneumoniae 1175; microtiter broth dilution
endpoint_label: MIC S. pneumo. 1175 (µg/mL)

compound="CCC1OC(=O)C(C)C(=O)C(C)C(OC2OC(C)CC(N(C)C)C2O)C(C)(OC)CC(C)C(=O)C(C)C2N(C3CN(S(=O)(=O)c4ccc5nn(C)cc5c4)C3)C(=O)OC12C (stereo not drawn) [Example 3.96]" measured_target="Streptococcus pneumoniae 1175" endpoint_label="MIC S. pneumo. 1175" bound_sign== measured=2
compound="CCC1OC(=O)C(C)C(=O)C(C)C(OC2OC(C)CC(N(C)C)C2O)C(C)(OC)CC(C)C(=O)C(C)C2N(C3CN(S(=O)(=O)c4ccc(OC)c(OCC#N)c4)C3)C(=O)OC12C (stereo not drawn) [Example 3.109]" measured_target="Streptococcus pneumoniae 1175" endpoint_label="MIC S. pneumo. 1175" bound_sign=< measured=0.063
compound="CCC1OC(=O)C(C)C(=O)C(C)C(OC2OC(C)CC(N(C)C)C2O)C(C)(OC)CC(C)C(=O)C(C)C2N(C3CN(Cc4cccc(-n5ccnn5)c4)C3)C(=O)OC12C (stereo not drawn) [Example 1.56, 3-([1,2,3]triazol-1-yl)benzyl]" measured_target="Streptococcus pneumoniae 1175" endpoint_label="MIC S. pneumo. 1175" bound_sign=< measured=0.06
compound="CCC1OC(=O)C(C)C(=O)C(C)C(OC2OC(C)CC(N(C)C)C2O)C(C)(OC)CC(C)C(=O)C(C)C2N(C3CN(C(=O)c4ccnc(-n5cnnn5)c4)C3)C(=O)OC12C (stereo not drawn) [Example 2.19, 2-(1H-tetrazol-1-yl)pyridine-4-carboxyl]" measured_target="Streptococcus pneumoniae 1175" endpoint_label="MIC S. pneumo. 1175" bound_sign== measured=0.5
compound="CCC1OC(=O)C(C)C(=O)C(C)C(OC2OC(C)CC(N(C)C)C2O)C(C)(OC)CC(C)C(=O)C(C)C2N(C3CN(Cc4c(Br)cnc5cccnc45)C3)C(=O)OC12C (stereo not drawn) [Example 1.106]" measured_target="Streptococcus pneumoniae 1175" endpoint_label="MIC S. pneumo. 1175" bound_sign=< measured=0.063
compound="CCC1OC(=O)C(C)C(=O)C(C)C(OC2OC(C)CC(N(C)C)C2O)C(C)(OC)CC(C)C(=O)C(C)C2N(C3CN(S(=O)(=O)c4ccc(-n5ccnc5)c(C)c4)C3)C(=O)OC12C (stereo not drawn) [Example 3.53]" measured_target="Streptococcus pneumoniae 1175" endpoint_label="MIC S. pneumo. 1175" bound_sign== measured=0.25
compound="CCC1OC(=O)C(C)C(=O)C(C)C(OC2OC(C)CC(N(C)C)C2O)C(C)(OC)CC(C)C(=O)C(C)C2N(C3CN(Cc4c(OC)cnc5cccnc45)C3)C(=O)OC12C (stereo not drawn) [Example 1.101]" measured_target="Streptococcus pneumoniae 1175" endpoint_label="MIC S. pneumo. 1175" bound_sign=< measured=0.063
compound="CCC1OC(=O)C(C)C(=O)C(C)C(OC2OC(C)CC(N(C)C)C2O)C(C)(OC)CC(C)C(=O)C(C)C2N(C3CN(S(=O)(=O)c4ccc(-c5nnn[nH]5)cc4)C3)C(=O)OC12C (stereo not drawn) [Example 3.84, 4-(1H-tetrazol-5-yl)benzenesulfonyl]" measured_target="Streptococcus pneumoniae 1175" endpoint_label="MIC S. pneumo. 1175" bound_sign== measured=16
compound="CCC1OC(=O)C(C)C(=O)C(C)C(OC2OC(C)CC(N(C)C)C2O)C(C)(OC)CC(C)C(=O)C(C)C2N(C3CN(S(=O)(=O)c4ccc(-n5cccn5)cc4)C3)C(=O)OC12C (stereo not drawn) [Example 3.44]" measured_target="Streptococcus pneumoniae 1175" endpoint_label="MIC S. pneumo. 1175" bound_sign=< measured=0.06
